In this section, each of the binders is paired with its reported Ratio µ:δ:κ (Ki at δ relative to µ).
- system-under-test: human δ-opioid receptor (human) (UniProt P41143)
- Sequence (P41143 whole entry, stated change not applied): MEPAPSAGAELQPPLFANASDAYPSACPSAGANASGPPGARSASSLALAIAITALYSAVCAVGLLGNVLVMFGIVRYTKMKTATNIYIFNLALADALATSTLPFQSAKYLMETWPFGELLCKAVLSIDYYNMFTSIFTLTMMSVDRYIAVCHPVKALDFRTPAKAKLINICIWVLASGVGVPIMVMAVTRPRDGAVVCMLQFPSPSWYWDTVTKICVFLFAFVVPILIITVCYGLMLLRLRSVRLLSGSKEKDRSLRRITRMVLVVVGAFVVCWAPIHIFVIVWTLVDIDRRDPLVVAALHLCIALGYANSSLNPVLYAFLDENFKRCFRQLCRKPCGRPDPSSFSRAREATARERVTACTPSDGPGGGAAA
- test-protocol: ratio of Ki values from radioligand competition, reference MOR
Non-standard residues stand in square brackets, D forms with d. No end group written: not given here. *: point of attachment. β‑lactoside = OC[C@H]1O[C@@H](O[C@H]2[C@H](O)[C@@H](O)[C@H](*)O[C@@H]2CO)[C@H](O)[C@@H](O)[C@H]1O; βGlc = OC[C@H]1O[C@@H](*)[C@H](O)[C@@H](O)[C@@H]1O; β‑D‑xyloside = O[C@@H]1[C@@H](O)[C@H](*)OC[C@H]1O; NMeF = CN[C@@H](Cc1ccccc1)C(=O)O
quantity-name: Ratio µ:δ:κ (Ki at δ relative to µ)

>  <binder>
Y[dA]G[NMeF]S(β‑D‑xyloside)-NH2 (N-terminus assumed; SMILES C[C@@H](NC(=O)[C@@H](N)Cc1ccc(O)cc1)C(=O)NCC(=O)N(C)[C@@H](Cc1ccccc1)C(=O)N[C@@H](CO[C@@H]1OC[C@@H](O)[C@H](O)[C@H]1O)C(N)=O, Glycopeptide; also called glycopeptide 3) [DAMGO analog compound (3), C-terminal L-serine amide beta-D-xyloside]

>  <quantity-name>
Ratio µ:δ:κ (Ki at δ relative to µ)

>  <numeric-result>
560

$$$$
>  <binder>
YAGFS (HELM PEPTIDE1{Y.[dA].G.[meF].S.[am]}$$$$V2.0; N-terminus assumed; SMILES C[C@@H](NC(=O)[C@@H](N)Cc1ccc(O)cc1)C(=O)NCC(=O)N(C)[C@@H](Cc1ccccc1)C(=O)N[C@@H](CO)C(N)=O, Made by Fmoc synthesis on Rink amide resin; also called peptide 2) [DAMGO analog compound (2), C-terminal L-serine amide]

>  <quantity-name>
Ratio µ:δ:κ (Ki at δ relative to µ)

>  <numeric-result>
880

$$$$
>  <binder>
Y[dA]G[NMeF]S(βGlc)-NH2 (N-terminus assumed; SMILES C[C@@H](NC(=O)[C@@H](N)Cc1ccc(O)cc1)C(=O)NCC(=O)N(C)[C@@H](Cc1ccccc1)C(=O)N[C@@H](CO[C@@H]1O[C@H](CO)[C@@H](O)[C@H](O)[C@H]1O)C(N)=O, Glycopeptide; also called glycopeptide 4) [DAMGO analog compound (4), C-terminal L-serine amide beta-D-glucoside]

>  <quantity-name>
Ratio µ:δ:κ (Ki at δ relative to µ)

>  <numeric-result>
3800

$$$$
>  <binder>
Y[dA]G[NMeF]S(β‑lactoside)-NH2 (N-terminus assumed; SMILES C[C@@H](NC(=O)[C@@H](N)Cc1ccc(O)cc1)C(=O)NCC(=O)N(C)[C@@H](Cc1ccccc1)C(=O)N[C@@H](CO[C@@H]1O[C@H](CO)[C@@H](O[C@@H]2O[C@H](CO)[C@H](O)[C@H](O)[C@H]2O)[C@H](O)[C@H]1O)C(N)=O, Glycopeptide; also called glycopeptide 5) [DAMGO analog compound (5), C-terminal L-serine amide beta-lactoside]

>  <quantity-name>
Ratio µ:δ:κ (Ki at δ relative to µ)

>  <numeric-result>
2400

$$$$

Data provenance is patent US20080019913A1.
